- Substrate: O=C(O)CCC(=O)C1=CC=C[C@@H](O)[C@@H]1C(=O)O
- assay: purified protein
- Type: biochemical, Thermobifida fusca
- run-parameters: 50 mM Tris pH 8.0, 0.1 mM MnCl2, 25°C
Listed proteins paired with reported kcat
Write the answer as a number in s⁻¹, unit excluded.

1. T. fusca OSBS (Thermobifida fusca YX; F37A) (protein) MTGRAFAIPLRTRFRGITVREGMLVRGAAGWGEFSPAAEYGPRECARWWAACYEAAELGWPAPVRDTVPVNATVPAVGPEEAARIVASSGCTTAKVKVAERGQSEANDVARVEAVRDALGPRGRVRIDVNGAWDVDTAVRMIRLLDRFELEYVEQPCATVDELAEVRRRVSVPIAADESIRRAEDPLRVRDAEAADVVVLKVQPLGGVRAALRLAEECGLPVVVSSAVETSVGLAAGVALAAALPELPYACGLATLRLLHADVCDDPLLPVHGVLPVRRVDVSEQRLAEVEIDPAAWQARLAAARAAWEQVEREPGP	163

--- query ---
// T. fusca OSBS (Thermobifida fusca YX; G252T) (protein) MTGRAFAIPLRTRFRGITVREGMLVRGAAGWGEFSPFAEYGPRECARWWAACYEAAELGWPAPVRDTVPVNATVPAVGPEEAARIVASSGCTTAKVKVAERGQSEANDVARVEAVRDALGPRGRVRIDVNGAWDVDTAVRMIRLLDRFELEYVEQPCATVDELAEVRRRVSVPIAADESIRRAEDPLRVRDAEAADVVVLKVQPLGGVRAALRLAEECGLPVVVSSAVETSVGLAAGVALAAALPELPYACTLATLRLLHADVCDDPLLPVHGVLPVRRVDVSEQRLAEVEIDPAAWQARLAAARAAWEQVEREPGP : kcat value = 13

meta.source: paper PMC3908897
